- Tested on: EIF2AK1
pKd: −log10 of the molar value.
reported.metric: pKd

Input line: Give the reported pKd for this compound. FC(F)(F)c1ccc(-c2cc(-c3c[nH]nc3-c3ccccn3)ccn2)cc1
Output line: < 5.00

###

Recorded pKd values (CSNK1E) are given below.
For clarity, pKd is expressed as the negative log10 of concentration in mol/L.

Input line: Answer with the recorded pKd for the compound listed here: CC(C)N1CCC(n2cnc(-c3ccc(F)cc3)c2-c2ccnc(N)n2)CC1 [SB-223132]
Output line: 6.64

Input line: Check the records and state pKd for CN1CCC(n2cnc(-c3ccc(F)cc3)c2-c2ccnc(NC3CCNCC3)n2)CC1 [SB-229482]
Output line: 6.68

Input line: In one line, give reported pKd of the entry CNc1nccc(-c2c(-c3ccc(F)cc3)ncn2C2CCN(C)CC2)n1 [SB-222903] .
Output line: 7.77

###

- System: BRK
- Construct: gene PTK6
- condition.parameters: concentration: 1 μM, replicates: in singlicate; n = 1
reported.metric: %Inh (%)
Kindly answer with a numeric value in %, unit omitted.

Input line: // output %Inh; input COc1ccc(NC(=O)Nc2ccc(C)c(-c3ccc(C(=O)Nc4ccncc4)cc3)c2)cc1 [GSK1398475] ; system BRK
Output line: 32

Input line: Provide BRK %Inh reading for COC(=O)c1c(-c2ccccc2)c2cc(Cl)ccc2c(=O)n1Cc1ccc(S(C)(=O)=O)cc1 .
Output line: 7

Input line: Please report %Inh with BRK for item Cl.O=S(=O)(c1cccc(F)c1)c1ccc(Nc2ncnc3cc(Br)sc23)cc1Cl [GSK306886] .
Output line: 0

Input line: Would you please give the reported %Inh of COc1ccc(-c2oc3ncnc(N)c3c2-c2ccc(OC)cc2)cc1 [SB-589132] with BRK?
Output line: 15

###

- System: PIP5K2C
- Construct: gene PIP4K2C
- condition.parameters: concentration: 1 μM, replicates: in singlicate; n = 1
reported.metric: %Inh (%)
Only the number, expressed in %, is required.

Input line: Name the recorded %Inh of the item Nc1nc(-c2ccccn2)c(-c2ccnc3ccccc23)s1 in your answer.
Output line: 57

Input line: Please look at this compound and report its %Inh: CS(=O)(=O)CCNCc1ccc(-c2ccc3ncnc(Nc4ccc(OCc5ccccc5)c(Cl)c4)c3c2)o1.Cl
Output line: 29

Input line: Given C[C@@H]1CCN(C(=O)CO)C[C@@H]1N(C)c1ncnc2[nH]ccc12 , respond with its %Inh.
Output line: 0

Input line: Please report the measured %Inh for CCc1nc(-c2cccc(N(C)S(=O)(=O)c3ccccc3)c2)c(-c2ccnc(Nc3ccc(N4CCN(C(C)=O)CC4)nc3)n2)s1
Output line: 63

Input line: Retrieve %Inh measured for Cl.Cn1ccc(-c2cccc(Nc3ccnc4cc(-c5nccs5)ccc34)c2)n1 and print it.
Output line: 50

Input line: Give %Inh for the following compound: Nc1nc(-c2ccc3c(N)n[nH]c3c2)cc(N2CCC[C@@H](C(=O)Nc3ccccc3)C2)n1.O=C(O)C(F)(F)F.O=C(O)C(F)(F)F
Output line: 31

Input line: Tell me %Inh reported for CN1c2ccc(-c3ccc(C(=O)NCCO)cc3)cc2-c2[nH]ncc2S1(=O)=O
Output line: 76

Input line: Find the measured %Inh of Fc1cccc(COc2ccc(Nc3ncnc4sc(-c5ccc[nH]5)cc34)cc2Cl)c1 and report it.
Output line: 25

Input line: Annotate the compound Nc1n[nH]c2nnc(-c3ccccc3)cc12 with its measured %Inh.
Output line: 7

Input line: Please report the measured %Inh for OCCOCCn1ccc2ncnc(Nc3ccc(Oc4cccc(Cl)c4)c(Cl)c3)c21
Output line: 30

Input line: Report measured %Inh; entry is Fc1ccc(Nc2nccc(-c3c(-c4ccc(Cl)cc4)nn4ncccc34)n2)cc1F
Output line: 20

Input line: Report %Inh for CC(C)N1CCC(n2cnc(-c3ccc(F)cc3)c2-c2ccnc(N)n2)CC1
Output line: 62

Input line: Answer with the recorded %Inh for the compound listed here: N#Cc1ccc(Oc2ccc(Nc3ncnc4cc[nH]c34)cc2Cl)cc1
Output line: 0

Input line: Give the reported value of %Inh for this record: CCC(CC)(CC)n1cnc2c(N)ncnc21
Output line: 0

Input line: Output measured %Inh for this item: Cl.Cl.c1ccc(-c2cc3ccncc3cc2OC2CCNCC2)cc1
Output line: 6

Input line: // fetch %Inh given entry Cc1ccc(NC(=O)c2cccc(C#N)c2)cc1-c1ccc(C(=O)Nc2ccncc2)cc1
Output line: 0

Input line: Specify reported %Inh for the compound shown: Fc1cccc(COc2ccc(Nc3ncnc4nn5ccccc5c34)cc2Cl)c1
Output line: 32

Input line: Output measured %Inh for this item: COc1ccc(NC(=O)Nc2ccc(C)c(-c3ccc(C(=O)Nc4ccncc4)cc3)c2)cc1
Output line: 0

###

- Tested on: RSK4(Kin.Dom.1-N-terminal)
- Construct: gene RPS6KA6
- condition.parameters: concentration: 1 μM, replicates: in singlicate; n = 1
Please go through the items and note down their %Inh.
Your answer should be a plain number; it is taken to be in %.

Input line: For CSc1ccc(NC2=C(c3ccccc3Cl)C(=O)NC2=O)cc1 , write its %Inh.
Output line: 0

Input line: For the molecule COc1ccc(Nc2nccc(N3CCC(NC(=O)c4cccc(NC(C)=O)c4)C3)n2)cc1 (stereo not drawn) , give its reported %Inh.
Output line: 0

Input line: Please report %Inh for the following molecule: COc1ccc(-c2oc3ncnc(N)c3c2-c2ccc(OC)cc2)cc1
Output line: 0

Input line: Name the recorded %Inh of the item Clc1cccc(-c2nc(Nc3ccncc3)c3ccccc3n2)c1 in your answer.
Output line: 0

Input line: Return the recorded %Inh value; entry: O=C(c1ccc(-c2cc(-c3c[nH]nc3-c3ccccn3)ccn2)cc1)N1CCCC1
Output line: 0

Input line: Tell me %Inh reported for CC(C)(C)c1ccc(-n2cnc3c(N)ncnc32)cc1
Output line: 15

Input line: Kindly indicate its recorded %Inh. Item: CCCc1ccc(S(=O)(=O)NC2CCN(c3ccnc(Nc4ccc(OC)cc4)n3)C2)cc1 (stereo not drawn)
Output line: 0

Input line: Indicate the recorded %Inh value for this molecule: CCn1c(-c2ccncc2)nc2cnccc21
Output line: 14

Input line: Quote %Inh reported for FC(F)(F)c1ccc(-c2nn3ncccc3c2-c2ccnc(Nc3cccc(C(F)(F)F)c3)n2)cc1 please.
Output line: 0

Input line: Determine from records and report %Inh for N#Cc1ccc(Oc2ccc(Nc3ncnc4cc[nH]c34)cc2Cl)cc1
Output line: 16

Input line: // Input: CNc1nccc(-c2c(-c3ccc(F)cc3)ncn2CCCN2CCOCC2)n1 . Output its %Inh only.
Output line: 7

Input line: Dear colleague, please send me the reported %Inh for Cc1ccc(C)c(NC(=O)NCCNc2ccnc(Nc3ccc(F)cc3)n2)c1 when you can.
Output line: 0

Input line: Please give measured %Inh of the following entry: Nc1nc(-c2ccc3c(N)n[nH]c3c2)cc(N2CCCCC2)n1
Output line: 0

Input line: Provide measured %Inh value, entry: O=C(NCCCN1CCCC1=O)c1cnc(NCc2cc(Cl)ccc2Cl)nc1NC1CCNCC1
Output line: 0

Input line: Let me know recorded %Inh for C[C@H]1CC[C@@H](C(=O)Nc2ccccc2)CN1c1cc(-c2ccc3c(N)n[nH]c3c2)nc(N)n1 , thanks.
Output line: 0

Input line: Give reported %Inh value for CNc1nccc(-c2c(-c3ccc(F)cc3)ncn2C2CCN(C)CC2)n1
Output line: 0

Input line: Determine its reported %Inh: Fc1ccc(Nc2nccc(-c3c(-c4ccc(Cl)cc4)nn4ncccc34)n2)cc1F
Output line: 30

Input line: Fill in reported %Inh for this entry: CS(=O)(=O)CCNCc1nc(-c2ccc3ncnc(Nc4ccc(OCc5cccc(F)c5)c(Cl)c4)c3c2)cs1.Cl
Output line: 0

###

- Tested on: JNK2
- Construct: gene MAPK9
- condition.parameters: concentration: 1 μM, replicates: in singlicate; n = 1
Hi! Just check whether %Inh is below 10%. Below gives true (1), equal or above gives false (0).

Input line: Take the compound Nc1nccc2scc(-c3ccc4c(c3)CCN4C(=O)Cc3cc(F)ccc3F)c12 and say whether its %Inh is less than 10%.
Output line: false (0)

Input line: Report whether reported %Inh is lower than 10% (strictly) for COc1ccc(Nc2nccc(N3CCC(NC(=O)Nc4ccc5c(c4)OCO5)C3)n2)cc1 (centres unmarked)
Output line: false (0)

Input line: Field: below-cutoff. Rule: recorded %Inh strictly less than 10%. Subject: Nc1nc(-c2ccc3c(N)n[nH]c3c2)cc(N2CCCCC2)n1
Output line: false (0)

Input line: Input CCc1nc(-c2cccc(N(C)S(=O)(=O)c3ccccc3)c2)c(-c2ccnc(Nc3ccc(N4CCN(C(C)=O)CC4)nc3)n2)s1 ; condition: %Inh strictly below 10%. Does it hold?
Output line: false (0)

Input line: Take the compound O=C(NCCCN1CCCC1=O)c1cnc(NCc2cc(Cl)ccc2Cl)nc1NC1CCNCC1 and say whether its %Inh is less than 10%.
Output line: true (1)

Input line: Please determine if Nc1nc(-c2ccc3c(N)n[nH]c3c2)cc(N2CCC[C@@H](C(=O)Nc3ccccc3)C2)n1.O=C(O)C(F)(F)F.O=C(O)C(F)(F)F is below 10% in terms of %Inh.
Output line: true (1)

Input line: Please determine if Cn1cc(-c2ccc3c(c2)CCN3C(=O)Cc2cccc(C(F)(F)F)c2)c2c(N)ncnc21 is below 10% in terms of %Inh.
Output line: true (1)
